- Test system: MOLT-4 leukemia
- method_summary: NCI tumour cell line growth inhibition, 48 h
molecules and their reported log10 TGI
Heads up, the numbers here are log10 of TGI in µM units.

These solved cases illustrate the format of a correct answer.
Cc1ccc2c(c1)C(=O)C(c1c(-c3[nH]c(=O)c4ccc(C)cc4c3O)c(O)c3ccccc3c1O)=NC2=O = 0.48
COP(=O)(OC)/C(=C\C1=CN(C(c2ccccc2)(c2ccccc2)c2ccccc2)CN1)NC=O = 1.49
O=C1/C(=C/c2ccc(Cl)cc2Cl)CN(S(=O)(=O)c2ccccc2)C/C1=C\c1ccc(Cl)cc1Cl = 1.08
COC(=O)c1ccc2[nH]c(O)c(C(=Nc3ccc(N(C)C(=O)CN4CCN(C)CC4)cc3)c3cccc(OC)c3)c2c1 = 0.51
C[C@]12OC(=O)[C@]3(O)CC[C@H]4[C@@H](C[C@@H](O)[C@@]5(Cl)CC=CC(=O)[C@]45C)[C@]45OCC6C(=O)O[C@@H]1C[C@@]6(C)[C@H](C4=O)[C@@]32O5 (stereo not given in full) = 1.24

input: Request the reported log10 TGI associated with `O=c1cc(NNc2ccc(F)cc2)[nH]c(=O)[nH]1`
output: 1.77

input: Would you mind telling me what log10 TGI value was observed for `COc1ccc(SS(=O)(=O)c2ccc(OC)cc2)cc1` ?
output: 1.68

input: Item under review: `COc1ccc2cnc(N)c(C#Cc3cc(C(=O)Nc4ccc(CN5CCN(C)CC5)c(C(F)(F)F)c4)cnc3C)c2c1` . Reported log10 TGI?
output: 1.43

input: // query log10 TGI value for entry C=CCC(NCc1ccccc1)[C@H](OCc1ccccc1)[C@@H]1COC(C)(C)O1 (stereo not given in full)
output: 1.92

input: Which log10 TGI is listed for `CN(C)C(=S)NC(=S)Nc1ccc2ccccc2c1` ?
output: 1.54

input: Dear colleague, I am looking for the recorded log10 TGI of the following molecule: CC(C)N(C(=O)C12C3(C(=O)OC(C)(C)C)C4C5(C#N)C3C1(C(=O)OC(C)(C)C)C5C42C(=O)OC(C)(C)C)C(C)C (stereo not given)
output: 1.60

input: May I ask what log10 TGI has been recorded for `CCOC(=O)c1cnc2c(C)cc(C)cc2c1NCCCN(C)C` ?
output: 1.53

input: Recorded log10 TGI for `CN(C)c1ccc2nc3ccc(=[N+](C)C)c([N+](=O)[O-])c-3sc2c1` , please?
output: 1.03

input: Using the record for `CN(C)C=Nc1ccc2c3c(cccc13)-c1ccccc1-2` , report its log10 TGI.
output: 1.39

====

In this section we review reported TGI values for a set of molecules.
- Tested on: RXF 393 renal
- method_summary: NCI tumour cell line growth inhibition, 48 h

Nc1c(N2CCCCC2)c(=O)nc2[nH]/c(=C\c3ccco3)c(=O)n12 = > 100 µM
N[C@@H]1CCCC[C@@H]1N.O=P([O-])([O-])CNCP(=O)([O-])[O-].[Pt+2] = > 100 µM
C[C@@H]1OC(=O)C[C@H]2CC(=O)N(CCC3CN(C(=O)c4ccccc4)c4ccccc43)C[C@@H]21 (stereo partly specified) = > 100 µM
Cc1n[nH]c(=O)n1/N=C/c1cccc(Cl)c1 = > 100 µM

input: What value of TGI has been reported for the following molecule? COc1ccc(C(=O)N2N=C(c3ccc(Br)cc3)CC2c2cn(-c3ccccc3)nc2-c2ccccc2)cc1 (stereo unspecified)
output: > 50 µM

input: What measured TGI goes with C[N+](C)(C)CC1CCCC(C[N+](C)(C)C)C1=NO (stereo unspecified) ?
output: > 100 µM

====

Catalogue of compounds with associated TGI
- Tested on: HOP-92 NSCLC
- method_summary: NCI tumour cell line growth inhibition, 48 h

// below: answered compounds
CC[C@H](C)[C@H](NC(=O)C12CC(NC)(C1)C2)C(=O)N(C)[C@H](C[C@@H](OC(C)=O)c1nc(C(=O)N[C@@H](Cc2ccccc2)C[C@H](C)C(=O)OC)cs1)C(C)C = > 25 µM
COc1ccc(/C=C/c2cc(OC)cc(OC)c2)cc1 = > 100 µM
Cc1nc2ccccc2c(=O)n1NC(=O)c1ccc(N)cc1 = > 100 µM
COc1ccc(N=NC(=O)NC(CC(C)C)C(=O)NC(CC(C)C)C(=O)O)cc1 (stereo not given) = > 100 µM

input: Give the measured TGI of `CC(C)c1ccccc1NC(=O)CCC(=O)NN` .
output: > 100 µM

====

- Test system: RPMI-8226 leukemia
- method_summary: NCI tumour cell line growth inhibition, 48 h
Reported TGI values for a set of compounds

Would you please look over these solved cases?
NC(N)=N/N=C(/CCN1CCCC1)CC(c1ccccc1)c1c(O)c2ccccc2oc1=O (stereo not drawn) = > 100 µM
COC(=O)c1ccc2cc(O)c(O)cc2c1 = > 100 µM

Now for another entry.
input: Need TGI of `N#C/C(=C\c1ccc2c(c1)OCO2)n1nnc2ccccc21` , thanks.
output: > 100 µM

====

- Test system: BT-549 breast
- method_summary: NCI tumour cell line growth inhibition, 48 h
Each item that follows carries a reported TGI.

COc1ccc2c(c1)c(-c1nonc1-c1cn(C)c3ccccc13)cn2C = > 100 µM
COC(=O)C12C3C4C1C1C2C3C41C(=O)NC(C)(C)CC(=O)O (stereo not given) = > 100 µM
CN(N=O)C(=O)NNC(=O)N(C)N=O = > 100 µM
CCCC(=O)OCC(COC(=O)CCC)OC(=O)CCC = > 100 µM

Then there is this compound:
input: Return reported TGI; argument: c1ccc2[nH]c(C3CCCCO3)nc2c1 (stereo not given)
output: > 100 µM

====

Entries annotated with measured TGI
- Test system: HCT-116 colon
- method_summary: NCI tumour cell line growth inhibition, 48 h

The following molecules have reported results that may help.
COc1ccc2c(c1)c(-c1nonc1-c1cn(C)c3ccccc13)cn2C = > 100 µM
CCOC(=O)C(C(C)=O)C1CC=CC1 (stereo not drawn) = > 100 µM

Please turn your attention to the following entry.
input: Given the molecule `O=c1cc(N2CCOCC2)[nH]c(=O)n1-c1cccc(Cl)c1` , what is its reported TGI?
output: > 100 µM

====

- System: COLO 205 colon
- method_summary: NCI tumour cell line growth inhibition, 48 h
Catalogue of TGI values
Give the quantity in µM, number only.

Please review the following examples before continuing.
Cc1ccc(SC2=C(N(C)C)C(=O)c3ccccc3C2=O)cc1 = 51.5
COC(=O)c1ccc2[nH]c(O)c(C(=Nc3ccc(N(C)C(=O)CN4CCN(C)CC4)cc3)c3cccc(OC)c3)c2c1 = 1.8
OCCOCCO/N=C1\C(c2c(O)[nH]c3ccccc23)=Nc2ccccc21 = 3.38

input: Which TGI value is on record for `COc1ccc(/C=C/c2cc(OC)cc(OC)c2)cc1` ?
output: 10.7

====

TGI values for the compounds below.
- Tested on: SF-268 CNS
- method_summary: NCI tumour cell line growth inhibition, 48 h
Where a SMILES comes first, the peptide text is derived from it. [ ]: non-standard residue; d: D form. The star is where a group is joined. Chg = N[CH](C(=O)O)C1CCCCC1; Cbz = O=C(OCc1ccccc1)*; OBn = c1ccc(CO*)cc1

These solved cases illustrate the format of a correct answer.
CCOC1CCC2C(CCC(/C=C/c3ccc(O)c4ncccc34)N2C)C1 (stereo not given) = > 100 µM
OC[C@H]1C[C@@H]2Cc3ccccc3N2N1 = > 100 µM
C[C@@H]1OC(=O)C[C@H]2CC(=O)N(CCC3CN(C(=O)c4ccccc4)c4ccccc43)C[C@@H]21 (stereo not given in full) = > 100 µM
COC(=O)C(NC(=O)C(CC(=O)OCc1ccccc1)NC(=O)OCc1ccccc1)C1CCCCC1 (stereo not given) (Cbz-Asp(OBn)-[Chg]-OMe; configuration not given here) = > 100 µM
CCCCC(CCCC)=NNC(=S)SC = > 100 µM
Cc1nc2ccccc2c(=O)n1NC(=O)c1ccc(N)cc1 = > 100 µM

input: Look at this compound and give its reported TGI. `Cc1ccc(Cl)cc1Nc1nc(C(F)(F)F)ccc1C(N)=O`
output: > 100 µM

input: Which TGI value belongs to CC(=O)NC(CCCN(Cc1ccccc1)C(=O)NCCCl)C(=O)NCc1ccccc1 (stereo not given) ?
output: > 100 µM

====

- Test system: A498 renal
- method_summary: NCI tumour cell line growth inhibition, 48 h
quantity_kind: GI50

Known GI50 results, listed for orientation:
O=C1C(C(Nc2ccccc2)c2ccccc2)=C([O-])c2ccccc21.O=C1C(C(Nc2ccccc2)c2ccccc2)=C([O-])c2ccccc21.[Ni+2] (stereo not given) = 7.57 µM
CN1CCN(CCCOc2ccc3ncnc(Nc4ccc(OCc5cccc(F)c5)c(Cl)c4)c3c2)CC1 = 1.13 µM
CCn1cc(C2NC(=O)c3ccccc3N2)c2cccc(C)c21 (stereo not given) = 0.172 µM

input: Dear colleague, I am looking for the recorded GI50 of the following compound: CCOc1cc2ncc(C#N)c(Nc3ccc(F)c(Cl)c3)c2cc1NC(=O)CC1CCSS1 (stereo not given)
output: 3.05 µM

input: Requested field: GI50. Item: `O=C(c1ccccc1)N(C(=S)NCCc1ccc(Cl)cc1)c1ccc(Cl)cc1`
output: 16.3 µM
